The measured values listed here are drawn from patent US20230233650A1.

Target: Human CRF2 receptor (Homo sapiens, UniProt Q13324)
Construct: host or cells: CHO-K1 (membrane preparation)
Sequence (Q13324 1-411): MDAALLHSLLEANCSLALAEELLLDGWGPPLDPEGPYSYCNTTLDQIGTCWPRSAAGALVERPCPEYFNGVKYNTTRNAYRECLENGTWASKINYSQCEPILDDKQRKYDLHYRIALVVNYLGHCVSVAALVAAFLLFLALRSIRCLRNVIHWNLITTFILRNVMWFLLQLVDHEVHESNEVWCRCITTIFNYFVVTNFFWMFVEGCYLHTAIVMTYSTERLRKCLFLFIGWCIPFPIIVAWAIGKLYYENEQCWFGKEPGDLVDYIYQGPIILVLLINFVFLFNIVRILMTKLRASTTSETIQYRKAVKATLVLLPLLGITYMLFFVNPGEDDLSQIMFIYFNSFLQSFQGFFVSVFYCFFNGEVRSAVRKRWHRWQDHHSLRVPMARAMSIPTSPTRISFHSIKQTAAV
Test: CRF2 receptor binding, scintillation proximity assay (SPA)
Details: displacement of [125I]-Sauvagine, CHO-K1 cell membranes
Ends that are not written are not given here.
READOUT: pIC50
Numbers only, as −log10 of the molar value.

Entry under review: DNPSLSIDLTFHLLRTLLELARTQSQRERAEQNRIIFDSV-NH2 [Compound 1] . Reported pIC50?
9.92
